# SYSTEM: endogenous human tissue factor on MDA-MB-231 breast cancer cells (human, UniProt P13726 33-295); further: test concentration or dose not given here
# ASSAY EXPLANATION: cell-based or functional assay
ASSAY METRIC: % IL-8 Inhibition (%)
Hi! Could you send only the number? It should be in %, unit omitted.

Ask: Report % IL-8 Inhibition for M51 (antibody, V domains shown, complete MAb; FR4 is its own entry; also called H21/L2) VH: EVQLVQSGAEVKKPGATVKISCKVSGYTFITYWIEWVQQAPGKGLEWMGDILPGSGSTNYNENFKGRVTITADTSTDTAYMELSSLRSEDTAVYYCATSGYYGNSGFAYWGQGTLVTVSS VL: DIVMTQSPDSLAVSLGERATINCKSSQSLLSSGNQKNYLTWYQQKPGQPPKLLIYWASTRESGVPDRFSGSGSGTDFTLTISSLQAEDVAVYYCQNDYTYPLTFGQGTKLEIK
Result: 71.5

Ask: Report % IL-8 Inhibition for M11 (antibody, V domains shown, complete MAb; FR4 is its own entry; also called H15/L4) VH: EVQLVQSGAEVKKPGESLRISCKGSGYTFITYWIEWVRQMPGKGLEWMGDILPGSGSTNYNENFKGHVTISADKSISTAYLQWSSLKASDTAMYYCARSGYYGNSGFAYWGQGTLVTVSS VL: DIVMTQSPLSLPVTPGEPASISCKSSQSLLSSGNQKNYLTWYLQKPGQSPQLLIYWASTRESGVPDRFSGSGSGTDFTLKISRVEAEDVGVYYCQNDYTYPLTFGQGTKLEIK
Result: 87.9

Ask: Report % IL-8 Inhibition for M58 (antibody, V domains shown, complete MAb; FR4 is its own entry; also called H22/L2) VH: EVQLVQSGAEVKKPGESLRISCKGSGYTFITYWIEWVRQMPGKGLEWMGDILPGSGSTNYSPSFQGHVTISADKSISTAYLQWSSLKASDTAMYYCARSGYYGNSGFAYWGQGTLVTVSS VL: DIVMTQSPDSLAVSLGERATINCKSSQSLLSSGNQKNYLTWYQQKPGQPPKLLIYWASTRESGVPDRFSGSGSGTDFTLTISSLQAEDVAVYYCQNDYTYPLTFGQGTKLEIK
Result: 88.5

Ask: Report % IL-8 Inhibition for M42 (antibody, V domains shown, complete MAb; FR4 is its own entry; also called H19/L7) VH: QVQLVQSGAEVKKPGSSVKVSCKASGYTFITYWIEWVRQAPGQGLEWMGDILPGSGSTNYNENFKGRVTITADESTSTAYMELSSLRSEDTAVYYCARSGYYGNSGFAYWGQGTLVTVSS VL: DIVMTQTPLSSPVTLGQPASISCKSSQSLLSSGNQKNYLTWLQQRPGQPPRLLIYWASTRESGVPDRFSGSGAGTDFTLKISRVEAEDVGVYYCQNDYTYPLTFGQGTKLEIK
Result: 86

Ask: Report % IL-8 Inhibition for M26 (antibody, V domains shown, complete MAb; FR4 is its own entry; also called H17/L5) VH: QVQLVQSGAEVKKPGASVKVSCKASGYTFITYWIEWVRQAPGQRLEWMGDILPGSGSTNYNENFKGRVTITRDTSASTAYMELSSLRSEDTAVYYCARSGYYGNSGFAYWGQGTLVTVSS VL: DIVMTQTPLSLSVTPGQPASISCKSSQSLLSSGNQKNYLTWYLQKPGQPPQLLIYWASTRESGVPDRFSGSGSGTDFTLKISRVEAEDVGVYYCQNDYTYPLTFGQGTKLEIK
Result: 79.1
